Target Of Assay: T1, Hu HER3 (CD33-[Human HER3, residues 20-640]-TAG) (human, UniProt P21860 20-640)
T1 construct: N-terminal CD33 leader is a secretion signal and is left out; also called hu HER3-Tag; HER3-Tag; not shown: C-terminal TAG (e.g. FLAG TAG)
Assay: solution equilibrium titration (SET), IgG
Listing of entries alongside the reported log10 Kd.
Parameter Measured: log10 Kd (log10 of the value in nM)

>  <Binder>
MOR10703 N52G (antibody, human IgG1, kappa, V domains shown, Variant of MOR10703; IgG1/kappa) VH: EVQLLESGGGLVQPGGSLRLSCAASGFTFSSYAMSWVRQAPGKGLEWVSAIGSQGKSTYYADSVKGRFTISRDNSKNTLYLQMNSLRAEDTAVYYCARWGDEGFDIWGQGTLVTVSS VL: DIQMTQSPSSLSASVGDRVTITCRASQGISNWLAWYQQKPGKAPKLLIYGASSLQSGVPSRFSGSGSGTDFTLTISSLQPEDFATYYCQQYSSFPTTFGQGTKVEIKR

>  <log10 Kd>
-1.22

$$$$
>  <Binder>
MOR09824 (antibody, human IgG1, kappa, V domains shown, tested as IgG) VH: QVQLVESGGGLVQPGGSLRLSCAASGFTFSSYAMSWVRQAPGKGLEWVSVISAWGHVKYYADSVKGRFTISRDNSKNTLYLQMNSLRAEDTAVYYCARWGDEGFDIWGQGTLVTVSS VL: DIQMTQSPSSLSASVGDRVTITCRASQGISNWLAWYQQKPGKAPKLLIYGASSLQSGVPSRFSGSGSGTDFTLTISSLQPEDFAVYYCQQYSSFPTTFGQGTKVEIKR

>  <log10 Kd>
-2.52

$$$$
>  <Binder>
MOR10703 A50V_N52G (antibody, human IgG1, kappa, V domains shown, Variant of MOR10703; IgG1/kappa) VH: EVQLLESGGGLVQPGGSLRLSCAASGFTFSSYAMSWVRQAPGKGLEWVSVIGSQGKSTYYADSVKGRFTISRDNSKNTLYLQMNSLRAEDTAVYYCARWGDEGFDIWGQGTLVTVSS VL: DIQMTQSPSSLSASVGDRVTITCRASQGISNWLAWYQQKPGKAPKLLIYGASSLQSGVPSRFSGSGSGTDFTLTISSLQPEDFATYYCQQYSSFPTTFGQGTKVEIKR

>  <log10 Kd>
-1.66

$$$$
>  <Binder>
MOR09823 (antibody, human IgG1, kappa, V domains shown, tested as IgG) VH: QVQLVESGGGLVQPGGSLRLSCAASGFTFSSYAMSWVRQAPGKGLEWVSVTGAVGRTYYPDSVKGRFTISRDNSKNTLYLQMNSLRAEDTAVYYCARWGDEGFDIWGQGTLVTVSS VL: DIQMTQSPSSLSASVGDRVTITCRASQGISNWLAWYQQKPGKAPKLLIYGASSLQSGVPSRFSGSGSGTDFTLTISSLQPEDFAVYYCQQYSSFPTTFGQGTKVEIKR

>  <log10 Kd>
-2.05

$$$$
>  <Binder>
MOR09825 (antibody, human IgG1, kappa, V domains shown, tested as IgG) VH: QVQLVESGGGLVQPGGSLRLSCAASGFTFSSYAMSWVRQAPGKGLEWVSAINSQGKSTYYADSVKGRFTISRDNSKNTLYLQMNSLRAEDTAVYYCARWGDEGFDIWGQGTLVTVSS VL: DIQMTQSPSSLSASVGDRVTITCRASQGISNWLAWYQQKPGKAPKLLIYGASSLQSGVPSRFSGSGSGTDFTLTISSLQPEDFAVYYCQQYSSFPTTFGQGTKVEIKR

>  <log10 Kd>
-1.60

$$$$
